# Test system: YANK2
# Construct: gene STK32B
# applied-conditions: concentration: 1 μM, replicates: in singlicate; n = 1;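 further: KINOMEscan kinase panel screen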
Entries and their %Inh values follow.
attribute-measured: %Inh (%)

compound | system-under-test | attribute-measured | unit-text | recorded-measurement
CCOc1nccc(-c2c(-c3ccc(F)cc3)ncn2C2CCNCC2)n1 | YANK2 | %Inh | % | 36
CN(c1ccc(NC(=O)Nc2cccc(Cl)c2)cc1)c1ccnc(N)n1.Cl | YANK2 | %Inh | % | 16
CC(C)c1nc(-c2cccc(NS(=O)(=O)c3c(F)cccc3F)c2)c(-c2ccnc(Nc3ccc(N4CCOCC4)nc3)n2)s1.Cl | YANK2 | %Inh | % | 9
Nc1cccc(-c2ccc3c(N)n[nH]c3c2)c1 | YANK2 | %Inh | % | 0
O=C(O)C(F)(F)F.O=c1[nH]ccc2nc(N[C@@H]3CCNC3)nc(Nc3ccc4c(c3)S(=O)(=O)CC4)c12 | YANK2 | %Inh | % | 0
Cc1ccc(NC(=O)c2ccnc(N3CCCCC3)c2)cc1-c1ccc(C(=O)NCC2CC2)cc1 | YANK2 | %Inh | % | 10
Nc1ncnc2scc(-c3ccc(NC(=O)Cc4cc(F)ccc4F)cc3)c12.O=C(O)C(F)(F)F | YANK2 | %Inh | % | 90.1
COc1cc(Nc2nccc(N3CCC(NC(=O)Nc4ccc5c(c4)OCO5)C3)n2)cc(OC)c1OC (centres unmarked) | YANK2 | %Inh | % | 0
Cn1cc(-c2cnc(N)c3c(-c4ccc5c(c4)CCN5C(=O)Cc4ccccc4)csc23)cn1 | YANK2 | %Inh | % | 0
Cl.N#CCc1ccc(Nc2nccc(Nc3ccc(Oc4ccccc4)cc3)n2)cc1 | YANK2 | %Inh | % | 0
COc1cccc(NC(=O)NCCNc2ccnc(Nc3ccc(F)cc3)n2)c1 | YANK2 | %Inh | % | 0
CN(C)CCOc1ccc(-c2cc(-c3ccc(Cl)c(O)c3)c(-c3ccncc3)[nH]2)cc1.Cl.Cl | YANK2 | %Inh | % | 28
Cc1ccc(O)cc1Nc1ccnc2cc(-c3ccc(CN4CCCCC4)o3)ccc12 | YANK2 | %Inh | % | 0
O=C(Nc1n[nH]c2cc(-c3cccs3)ccc12)C1CC1 | YANK2 | %Inh | % | 0
COc1ccc(C)c(Nc2ccnc(Nc3ccc(-c4cnc[nH]4)cc3)n2)c1.Cl | YANK2 | %Inh | % | 0
COc1ccc(NC(=O)c2ccoc2)cc1-c1ccc(C(=O)NCC2CC2)cc1 | YANK2 | %Inh | % | 13
COc1cccc(-c2nc(-c3ccccc3)[nH]c2-c2ccncc2)c1 | YANK2 | %Inh | % | 4

====

# Test system: PKN2
# applied-conditions: concentration: 1 μM, replicates: in singlicate; n = 1
attribute-measured: %Inh

molecule | recorded-measurement
NCCC(NC(=O)c1cc(Br)c(-c2ccnc3[nH]ccc23)s1)c1ccccc1.O=C(O)C(F)(F)F.O=C(O)C(F)(F)F (centres unmarked) [GSK1307810] | 87%
CCOc1nccc(-c2c(-c3ccc(F)cc3)ncn2C2CCNCC2)n1 [SB-249175] | 18%
CNc1nccc(-c2ccc3c(N)n[nH]c3c2)n1 [GSK2206003] | 0%
Cn1cc(-c2ccc3c(c2)CCN3C(=O)Cc2cc(F)cc(F)c2F)c2c(N)ncnc21 [GSK2634140] | 0%
CN(c1ccc(NC(=O)Nc2cccc(Cl)c2)cc1)c1ccnc(N)n1.Cl [GW830707] | 0%

====

# reported %Inh; entries follow
# Test system: DYRK2
# applied-conditions: concentration: 1 μM, replicates: in singlicate; n = 1

smiles-record | unit-text | %Inh
CN1CCN(Cc2ccc(NC(=O)Nc3ccc(N(C)c4ccnc(Nc5ccc(CS(C)(=O)=O)cc5)n4)cc3)cc2)CC1.Cl | % | 32
Cc1ccc(NC(=O)c2ccc(Cl)c(Cl)c2)cc1-c1ccc(C(=O)Nc2ccncc2)cc1 | % | 7
Fc1cc(Cl)ccc1Nc1ccnc2cc(-c3ccc(CN4CCOCC4)o3)ccc12 | % | 13
Cc1ccccc1CC(=O)N1CCc2cc(-c3cn(C)c4ncnc(N)c34)ccc21 | % | 4
CC(C)c1nc(-c2ccc(F)c(NS(=O)(=O)c3c(F)cccc3F)c2)c(-c2ccnc(Nc3ccc(N4CCOCC4)nc3)n2)s1 | % | 2
O=C(Nc1c(F)cccc1F)c1cc(C(=O)c2ccccc2F)c[nH]1 | % | 12
Cc1ccc(Nc2ccnc(Nc3ccc(C)c(F)c3)n2)cc1O.Cl | % | 0
O=C(Nc1n[nH]c2nc(-c3ccccc3O)ccc12)C1CC1 | % | 14

====

# System: SRC
# applied-conditions: concentration: 1 μM, replicates: in singlicate; n = 1
Exam item: assign satisfied to entries whose %Inh is below 20% and not satisfied to entries at or above 20%. Note that a value of exactly 20% receives not satisfied.

compound | class
COC(=O)Nc1nc2ccc(Oc3ccc(NC(=O)Nc4cc(C(F)(F)F)ccc4F)cc3)cc2[nH]1.Cl [GW654607] | satisfied
CNc1nccc(-c2ccc3c(N)n[nH]c3c2)n1 [GSK2206003] | satisfied
COc1cc(Nc2nccc(N3CCC(NC(=O)Nc4ccc5c(c4)OCO5)C3)n2)cc(OC)c1OC (stereo not drawn) [GSK1379766] | satisfied
Cc1ccc(NC(=O)c2ccc(Cl)c(Cl)c2)cc1-c1ccc(C(=O)Nc2ccncc2)cc1 [GSK1398460] | not satisfied
Cc1ccc(Nc2ccnc(Nc3ccc(C)c(F)c3)n2)cc1O.Cl [GW582868] | not satisfied
CN(c1ccc(F)c(NC(=O)c2cccc(OC(C)(C)C#N)c2Cl)c1)c1ccc2nc(NC(=O)C3CC3)sc2n1 | not satisfied
Cl.N#CCc1ccc(Nc2nccc(Nc3ccc(Oc4ccccc4)cc3)n2)cc1 [GW639905] | not satisfied
Cl.Cl.NC(CNC(=O)c1cc(Br)c(-c2ccnc3[nH]ccc23)s1)c1ccccc1 (stereo not drawn) [GSK1322949] | satisfied
Cc1ccc(O)cc1Nc1ccnc2ccc(C(C)(C)C)cc12 [GW856805] | not satisfied

====

// values below are reported %Inh
# Tested on: YANK3
# Construct: gene STK32C
# applied-conditions: concentration: 1 μM, replicates: in singlicate; n = 1

molecule | %Inh
N#Cc1cnc2cc(-c3cnc(CNCCN4CCOCC4)s3)ccc2c1Nc1ccc(Oc2ccccc2)cc1 | 0%
Cl.Cl.NC(CNC(=O)c1cc(Br)c(-c2ccnc3[nH]ccc23)s1)c1ccccc1 (stereo not drawn) | 0%
CC(C)(C)c1ccc(C(=O)Nc2cn3cc(-n4ccnc4)ccc3n2)cc1 | 0%
COc1ccc(NC(=O)c2ccoc2)cc1-c1ccc(C(=O)NCC2CC2)cc1 | 12%
Cc1cc(-c2ccnc(Nc3cccc(C#N)c3)n2)cc(C)c1O | 13%
Cc1cccc(Nc2nc(N[C@H]3CCCC[C@H]3N)ncc2C(N)=O)c1.Cl | 51%
CN1CCN(Cc2ccc(NC(=O)Nc3ccc(N(C)c4ccnc(Nc5ccc(CS(C)(=O)=O)cc5)n4)cc3)cc2)CC1.Cl | 6%
CN(C)c1ncnc2nc[nH]c12 | 0%
CCNc1nccc(-c2c(-c3ccc(F)cc3)ncn2C2CCN(C)CC2)n1 | 0%

====

# Test system: RIPK5
# applied-conditions: concentration: 1 μM, replicates: in singlicate; n = 1
%Inh: recorded values

compound | %Inh (%)
O=C(Nc1n[nH]c2nc(-c3ccccc3)ccc12)C1CC1 [SB-708999] | 0
Cl.Cl.NC(CNC(=O)c1cc(Br)c(-c2ccnc3[nH]ccc23)s1)c1ccccc1 (centres unmarked) [GSK1322949] | 18
CC(C)(C)c1ccc(C(=O)Nc2cn3cc(-n4ccnc4)ccc3n2)cc1 | 34
CCn1cnc2c(NCc3ccccc3)ncnc21 [SKF-96418] | 28
O=C(O)C(F)(F)F.O=c1[nH]ccc2nc(N[C@@H]3CCNC3)nc(Nc3cc(Cl)cc(Cl)c3)c12 [GSK2188764] | 10
CSc1ccc(NC2=C(c3ccc(Cl)cc3)C(=O)NC2=O)cc1 [SB-317658] | 7
O=C(Nc1c(F)cccc1F)c1cc(C(=O)c2ccccc2F)c[nH]1 [GSK1326180] | 0
Cc1ccccc1CC(=O)N1CCc2cc(-c3cn(C)c4ncnc(N)c34)ccc21 [GSK2603346] | 69
Cc1ccc(NC(=O)c2ccnc(N3CCCCC3)c2)cc1-c1ccc(C(=O)NCC2CC2)cc1 [GW775610] | 0
COC(=O)Nc1nc2ccc(Oc3ccc(NC(=O)Nc4cc(C(F)(F)F)ccc4F)cc3)cc2[nH]1.Cl [GW654607] | 0
Fc1cc(Cl)ccc1Nc1ccnc2cc(-c3ccc(CN4CCOCC4)o3)ccc12 [GW560109] | 0
Nc1ncc(-c2cn[nH]c2)c2scc(-c3ccc4c(c3)CCN4C(=O)Cc3ccccc3)c12 [GSK2593067] | 10
COc1ccc(NC(=O)c2ccoc2)cc1-c1ccc(C(=O)NCC2CC2)cc1 [GW810437] | 14
COc1cccc(NC(=O)NCCNc2ccnc(Nc3ccc(F)cc3)n2)c1 [GSK1379879] | 0
CN(C)CCOc1ccc(-c2cc(-c3ccc(Cl)c(O)c3)c(-c3ccncc3)[nH]2)cc1.Cl.Cl [SB-684387] | 13
Cc1ccc(C)c(NC(=O)Nc2ccc(C)c(-c3ccc(C(=O)Nc4ccncc4)cc3)c2)c1 [GSK1398473] | 7
CC(C)c1nc(-c2ccc(F)c(NS(=O)(=O)c3c(F)cccc3F)c2)c(-c2ccnc(Nc3ccc(N4CCOCC4)nc3)n2)s1 [GSK1804250] | 19
